assay: Apparent permeability from apical to basolateral side in human Caco2 cells at pH 7.4; type: ADME, cell-based; details: Caco-2, pH 7.4
In this section we review reported Papp A→B values for a set of compounds.

{"columns": ["compound", "Papp A→B"],
 "data": [
  ["O=C(NCC1CCOCC1)c1nc(OS(=O)(=O)CCC(F)(F)F)ccc1NC(=O)c1ccc(Cn2ccnn2)c2ccccc12", "21 ×10⁻⁶ cm/s"],
  ["C[S+]([O-])Cc1ccc(C(=O)Nc2ccc(OCCOCCO)nc2C(=O)NCC2CCC2)c2ccccc12 (centres undefined)", "26 ×10⁻⁶ cm/s"],
  ["COc1ccc(NC(=O)c2ccc(C[S+](C)[O-])c3ccccc23)c(C(=O)NCC2CCOCC2)n1 (centres undefined)", "35 ×10⁻⁶ cm/s"],
  ["C[S@+]([O-])Cc1ccc(C(=O)Nc2cccnc2C(=O)NCC2CCOCC2)c2ccccc12", "0.61 ×10⁻⁶ cm/s"]
]}

---

molecular target: Cannabinoid receptor 1 (Homo sapiens); assay: Displacement of [3H]-CP55,940 from human CB1 receptor expressed in HEK293S cell membranes by scintillation counting analysis
pIC50: −log10 of the molar value.
This listing pairs compounds with measured pIC50.

{"columns": ["compound", "result.modifier", "pIC50"],
 "data": [
  ["O=C(NCC1CCOCC1)c1ncccc1NC(=O)c1cccc2ccccc12", "=", 7.51],
  ["O=C(NCC1CCCCC1)c1cc(Cl)ccc1NC(=O)c1cccc2ccccc12", "=", 6.80],
  ["O=C(NCC1CCCCC1)c1ccncc1NC(=O)c1cccc2ccccc12", "=", 5.44],
  ["C[S+]([O-])Cc1ccc(C(=O)Nc2ccc(OCCOCCO)nc2C(=O)NCC2CCC2)c2ccccc12 (centres undefined)", "=", 8.14],
  ["COc1ccc(NC(=O)c2ccc(Cn3ccnn3)c3ccccc23)c(C(=O)NCC2CCC2)n1", "=", 9.01],
  ["O=C(NCC1CCC1)c1ncccc1NC(=O)c1ccc(Cn2ccnn2)c2ccccc12", "=", 6.15],
  ["O=C(NCC1CCCCC1)c1ncccc1NC(=O)c1cccc2ccccc12", "=", 8.00],
  ["C[S+]([O-])Cc1ccc(C(=O)Nc2nccnc2C(=O)NCC2CCC2)c2ccccc12 (single isomer, unassigned)", "=", 7.43],
  ["O=C(NCC1CCOCC1)c1ncccc1NC(=O)c1cccc2nccnc12", "<", 5.00],
  ["O=C(NCC1CCOCC1)c1nc(OS(=O)(=O)CCC(F)(F)F)ccc1NC(=O)c1ccc(Cn2ccnn2)c2ccccc12", "=", 7.85],
  ["O=C(NCC1CCC1)c1ncccc1NC(=O)c1ccnc2ccccc12", "=", 7.55],
  ["C[S+]([O-])Cc1ccc(C(=O)Nc2nccnc2C(=O)NCC2CCC2)c2ccccc12 (stereo in doubt; 18f)", "=", 7.33],
  ["CS(=O)(=O)Cc1ccc(C(=O)Nc2cccnc2C(=O)NCC2CCC2)c2ccccc12", "=", 3.62],
  ["O=C(NCC1CCC1)c1nc(OCCOCCO)ccc1NC(=O)c1ccnc2ccccc12", "=", 5.00],
  ["O=C(NCC1CCC1)c1nc(OCCO)ccc1NC(=O)c1ccnc2ccccc12", "=", 4.14],
  ["COc1ccc(NC(=O)c2ccc(C[S+](C)[O-])c3ccccc23)c(C(=O)NCC2CCOCC2)n1 (centres undefined)", "=", 7.82],
  ["COc1ccc(NC(=O)c2ccc(Cn3ccnn3)c3ccccc23)c(C(=O)NCC2CCOCC2)n1", "=", 8.62],
  ["O=C(NCC1CCC1)c1nccnc1NC(=O)c1ccc(Cn2ccnn2)c2ccccc12", "=", 8.37],
  ["C[S+]([O-])Cc1ccc(C(=O)Nc2cccnc2C(=O)NCC2CCC2)c2ccccc12 (centres undefined)", "=", 5.15],
  ["COc1ccc(NC(=O)c2ccc(Cn3ccnn3)c3ccccc23)c(C(=O)NCC2CCCCC2)n1", "=", 9.07],
  ["O=C(NCC1CCOCC1)c1ncccc1NC(=O)c1ccc(C(=O)O)c2ccccc12", "<", 2.00],
  ["O=C(NCC1CCC1)c1ncccc1NC(=O)c1ccc(Cn2cccn2)c2ccccc12", "=", 4.89],
  ["O=C(NCC1CCCCC1)c1cccnc1NC(=O)c1cccc2ccccc12", "<", 5.00],
  ["O=C(NCC1CCC1)c1ncccc1NC(=O)c1cccc2cccnc12", "=", 6.49],
  ["C[S@@+]([O-])Cc1ccc(C(=O)Nc2cccnc2C(=O)NCC2CCOCC2)c2ccccc12", "=", 7.68],
  ["C[S+]([O-])Cc1ccc(C(=O)Nc2cccnc2C(=O)NCC2CCOCC2)c2ccccc12 (centres undefined)", "=", 7.31],
  ["O=C(NCC1CCC1)c1ncccc1NC(=O)c1cccc2ccccc12", "=", 8.21],
  ["O=C(NCC1CCOCC1)c1ncccc1NC(=O)c1ccc(Cn2ccnn2)c2ccccc12", "=", 8.30],
  ["O=C(Nc1cccnc1C(=O)NCC1CCOCC1)c1cccc2c1OCCO2", "=", 5.92]
]}

---

BPR: recorded values
test: Ratio of unbound fraction in brain to plasma in Sprague-Dawley rat; format: ADME, cell-free
recorded.endpoint: BPR

{"columns": ["compound", "recorded.measurement"],
 "data": [
  ["C[S@@+]([O-])Cc1ccc(C(=O)Nc2cccnc2C(=O)NCC2CCOCC2)c2ccccc12", 0.03],
  ["O=C(NCC1CCOCC1)c1nc(OS(=O)(=O)CCC(F)(F)F)ccc1NC(=O)c1ccc(Cn2ccnn2)c2ccccc12", 0.015],
  ["COc1ccc(NC(=O)c2ccc(Cn3ccnn3)c3ccccc23)c(C(=O)NCC2CCCCC2)n1", 0.18],
  ["C[S+]([O-])Cc1ccc(C(=O)Nc2nccnc2C(=O)NCC2CCC2)c2ccccc12 (stereo in doubt; 18f)", 0.03],
  ["O=C(NCC1CCC1)c1nccnc1NC(=O)c1ccc(Cn2ccnn2)c2ccccc12", 0.054],
  ["COc1ccc(NC(=O)c2ccc(Cn3ccnn3)c3ccccc23)c(C(=O)NCC2CCC2)n1", 0.093],
  ["C[S+]([O-])Cc1ccc(C(=O)Nc2ccc(OCCOCCO)nc2C(=O)NCC2CCC2)c2ccccc12 (configuration not stated)", 0.023],
  ["C[S+]([O-])Cc1ccc(C(=O)Nc2nccnc2C(=O)NCC2CCC2)c2ccccc12 (single isomer, unassigned)", 0.011],
  ["COc1ccc(NC(=O)c2ccc(Cn3ccnn3)c3ccccc23)c(C(=O)NCC2CCOCC2)n1", 0.044],
  ["O=C(NCC1CCOCC1)c1ncccc1NC(=O)c1ccc(Cn2ccnn2)c2ccccc12", 0.019],
  ["COc1ccc(NC(=O)c2ccc(C[S+](C)[O-])c3ccccc23)c(C(=O)NCC2CCOCC2)n1 (configuration not stated)", 0.026],
  ["C[S+]([O-])Cc1ccc(C(=O)Nc2cccnc2C(=O)NCC2CCOCC2)c2ccccc12 (configuration not stated)", 0.01]
]}

---

target: Cannabinoid receptor 1 (Homo sapiens, UniProt P21554); assay: Agonist activity at human CB1 receptor expressed in HEK293S cell membranes after 1 hr by GTPgamma[35S] binding assay relative to WIN 55,212-2
Sequence (P21554 whole entry): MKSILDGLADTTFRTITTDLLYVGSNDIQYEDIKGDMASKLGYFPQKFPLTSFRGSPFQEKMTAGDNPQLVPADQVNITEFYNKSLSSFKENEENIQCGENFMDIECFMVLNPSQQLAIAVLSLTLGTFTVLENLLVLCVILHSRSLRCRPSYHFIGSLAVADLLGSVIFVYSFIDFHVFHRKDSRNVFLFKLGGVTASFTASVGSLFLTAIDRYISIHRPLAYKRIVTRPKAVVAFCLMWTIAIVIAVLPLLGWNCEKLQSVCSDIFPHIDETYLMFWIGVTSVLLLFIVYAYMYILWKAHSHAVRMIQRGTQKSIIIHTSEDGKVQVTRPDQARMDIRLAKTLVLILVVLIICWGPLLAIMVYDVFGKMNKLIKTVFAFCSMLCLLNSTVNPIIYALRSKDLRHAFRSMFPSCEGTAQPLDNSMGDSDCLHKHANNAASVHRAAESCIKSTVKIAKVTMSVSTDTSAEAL
# maps each entry to its Emax
recorded.endpoint: Emax (%)

{"columns": ["molecule", "units.of.measure", "recorded.measurement"],
 "data": [
  ["O=C(NCC1CCC1)c1ncccc1NC(=O)c1ccc(Cn2ccnn2)c2ccccc12", "%", 110],
  ["O=C(NCC1CCC1)c1ncccc1NC(=O)c1ccc(Cn2cccn2)c2ccccc12", "%", 93],
  ["O=C(NCC1CCC1)c1nc(OCCOCCO)ccc1NC(=O)c1ccnc2ccccc12", "%", 130],
  ["O=C(NCC1CCC1)c1nccnc1NC(=O)c1ccc(Cn2ccnn2)c2ccccc12", "%", 110],
  ["O=C(NCC1CCOCC1)c1ncccc1NC(=O)c1cccc2ccccc12", "%", 110],
  ["COCc1ccc(C(=O)Nc2cccnc2C(=O)NCC2CCC2)c2ccccc12", "%", 110],
  ["O=C(NCC1CCOCC1)c1nc(OS(=O)(=O)CCC(F)(F)F)ccc1NC(=O)c1ccc(Cn2ccnn2)c2ccccc12", "%", 110],
  ["C[S+]([O-])Cc1ccc(C(=O)Nc2cccnc2C(=O)NCC2CCOCC2)c2ccccc12 (stereo unspecified)", "%", 110],
  ["COc1ccc(NC(=O)c2ccc(Cn3ccnn3)c3ccccc23)c(C(=O)NCC2CCOCC2)n1", "%", 60],
  ["O=C(NCC1CCC1)c1ncccc1NC(=O)c1cccc2ccccc12", "%", 110],
  ["O=C(NCC1CCC1)c1ncccc1NC(=O)c1ccnc2ccccc12", "%", 94]
]}

---

pIC50 values for the compounds below.
target: UniProt P21554; test: Displacement of [3H]-CP55,940 from human CB1 receptor expressed in HEK293S cell membranes by scintillation counting analysis
pIC50: −log10 of the molar value.
recorded.endpoint: pIC50

{"columns": ["cpd.smiles", "recorded.endpoint", "result.modifier", "recorded.measurement"],
 "data": [
  ["O=C(NCC1CCCCC1)c1cnccc1NC(=O)c1cccc2ccccc12", "pIC50", "=", 5.85],
  ["O=C(Nc1cccnc1C(=O)NCC1CCOCC1)c1ccc2ncsc2c1", "pIC50", "<", 5.17],
  ["C[S@+]([O-])Cc1ccc(C(=O)Nc2cccnc2C(=O)NCC2CCOCC2)c2ccccc12", "pIC50", "=", 6.22],
  ["COc1ccc(NC(=O)c2ccnc3ccccc23)c(C(=O)NCC2CCC2)n1", "pIC50", "=", 4.82],
  ["O=C(NCC1CCC1)c1ncccc1NC(=O)c1cccc2cnccc12", "pIC50", "=", 6.66],
  ["O=C(NCC1CCCCC1)c1nccnc1NC(=O)c1cccc2ccccc12", "pIC50", "=", 7.04]
]}
